System: ACHN;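 further: cell viability read-out used to gauge how strongly growth of human ACHN cells is suppressed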
ASSAY_TEXT: cells
Format: functional, cell-based
CONDITION_INFO: Homo sapiens
Description: SANGER: Inhibition of human ACHN cell growth in a cell viability assay.
TEST_READOUT: IC50

{"MOLECULE": "O=c1[nH]c2ccccc2n1C1CCN(Cc2ccc(-c3nc4cc5[nH]cnc5cc4nc3-c3ccccc3)cc2)CC1", "TEST_READOUT": "IC50", "REPORTED_VALUE": "> 2560 nM"}
{"MOLECULE": "CC[C@@]1(O)C(=O)OCc2c1cc1n(c2=O)Cc2cc3ccccc3nc2-1 [CAMPTOTHECIN]", "TEST_READOUT": "IC50", "REPORTED_VALUE": "6.66 nM"}
{"MOLECULE": "CC[C@]1(O)C[C@@H]2CN(CCc3c([nH]c4ccccc34)[C@@](C(=O)OC)(c3cc4c(cc3OC)N(C)[C@H]3[C@@](O)(C(=O)OC)[C@H](OC(C)=O)[C@]5(CC)C=CCN6CC[C@]43[C@@H]65)C2)C1 [VINBLASTINE]", "TEST_READOUT": "IC50", "REPORTED_VALUE": "59 nM"}
{"MOLECULE": "O=c1cc(N2CCOCC2)oc2c(-c3cccc4c3sc3ccccc34)cccc12", "TEST_READOUT": "IC50", "REPORTED_VALUE": "> 2000 nM"}
{"MOLECULE": "C[C@]1(c2nc3c(C(N)=O)cccc3[nH]2)CCCN1 [VELIPARIB]", "TEST_READOUT": "IC50", "REPORTED_VALUE": "> 5000 nM"}
